# Measured on: PD-1/PD-L1 (Homo sapiens (Human))
# Method summary: PD-1/PD-L1 binding assay (HTRF)
Quantity name: IC50

| Compound | Measured on | IC50 |
| --- | --- | --- |
| Cn1c(C(=O)Nc2cccc(-c3cccc(NC(=O)c4nc5c(n4C)CCN(C4CCC(O)CC4)C5)c3Cl)c2Cl)nc2c1CCN(C[C@H]1CC[C@H](C(=O)O)CC1)C2 (stereo partly drawn) | PD-1/PD-L1 (Homo sapiens (Human)) | ≤ 10 nM |
| C[C@H](O)CN1CCc2c(nc(C(=O)Nc3cccc(-c4cccc(NC(=O)c5nc6c(n5C)CCN(CC57CCC(C(=O)O)(CC5)C7)C6)c4Cl)c3Cl)n2C)C1 | PD-1/PD-L1 (Homo sapiens (Human)) | ≤ 10 nM |

The record that follows has no IC50 shown yet.
**Query** Quick check: IC50 of Cc1c(NC(=O)c2cc(CN3CC[C@@H](O)C3)cn(C)c2=O)cccc1-c1cccc(NC(=O)c2nc3c(n2C)CCN(C[C@H](C)O)C3)c1Cl ?
**Result** ≤ 10 nM

###

Exercise: state measured IC50 for each of the compounds provided.
# Measured on: PD-1/PD-L1 (Homo sapiens (Human))
# Method summary: PD-1/PD-L1 binding assay (HTRF)

Illustrative cases are given below, each with its answer.
| Compound | IC50 |
| --- | --- |
| Cc1c(COc2cc(OCc3cncc(C#N)c3)c(CN3CCCC[C@H]3C(=O)O)cc2Cl)cccc1-c1cccc(NC(=O)c2nc3c(n2C)CCN(C)C3)c1Cl | ≤ 10 nM |
| CCC1(C(=O)O)CCC(N2CCc3c(nc(C(=O)Nc4cccc(-c5cccc(NC(=O)c6nc7c(n6C)CCN(C)C7)c5Cl)c4Cl)n3C)C2)CC1 (centres unmarked) | ≤ 10 nM |
| C[C@@H](O)CN1CCc2c(nc(C(=O)Nc3cccc(-c4cccc(NC(=O)c5nc6c(n5C)CCN(C[C@H]5CC[C@@H](C(=O)O)CC5)C6)c4Cl)c3Cl)n2C)C1 | ≤ 10 nM |
| C[C@H](O)CN1CCc2c(nc(C(=O)Nc3cccc(-c4cccc(NC(=O)c5nc6c(n5C)CCN(C[C@H]5CC[C@H](C(=O)O)CC5)C6)c4Cl)c3Cl)n2C)C1 | ≤ 10 nM |

The record that follows has no IC50 shown yet.
**Query** Quick check: IC50 of Cc1c(NC(=O)c2nc3c(n2C)CCN(C[C@H]2CC[C@H](C(=O)O)CC2)C3)cccc1-c1cccc(NC(=O)c2nc3c(n2C)CCN(C2CCOCC2)C3)c1Cl ?
**Result** ≤ 10 nM

###

# Measured on: PD-1/PD-L1 (Homo sapiens (Human), UniProt Q9NZQ7)
# Sequence (Q9NZQ7 19-238): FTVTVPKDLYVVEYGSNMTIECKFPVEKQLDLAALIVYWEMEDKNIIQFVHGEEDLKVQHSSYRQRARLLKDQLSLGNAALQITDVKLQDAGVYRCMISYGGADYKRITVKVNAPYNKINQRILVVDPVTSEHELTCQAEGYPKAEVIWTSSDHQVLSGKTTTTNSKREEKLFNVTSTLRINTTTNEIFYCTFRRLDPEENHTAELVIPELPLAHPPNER
# Method summary: PD-1/PD-L1 binding assay (HTRF)
Quantity name: IC50

| Compound | Measured on | IC50 |
| --- | --- | --- |
| Cc1c(NC(=O)c2nc3c(n2C)CCN(CC24CCC(C(=O)O)(CC2)CC4)C3)cccc1-c1cccc(NC(=O)c2nc3c(n2C)CCN(C)C3)c1Cl | PD-1/PD-L1 (Homo sapiens (Human), UniProt Q9NZQ7) | ≤ 10 nM |
| Cc1c(NC(=O)c2nc3c(n2C)CCN(CCO)C3)cccc1-c1cccc(NC(=O)c2nc3c(n2C)CCN(CC[C@H]2CC[C@H](C(=O)O)CC2)C3)c1Cl | PD-1/PD-L1 (Homo sapiens (Human), UniProt Q9NZQ7) | ≤ 10 nM |
| Cc1c(NC(=O)c2nc3c(n2C)CCN(C(C)C)C3)cccc1-c1cccc(NC(=O)c2nc3c(n2C)CCN(CC[C@H]2CC[C@H](C(=O)O)CC2)C3)c1Cl | PD-1/PD-L1 (Homo sapiens (Human), UniProt Q9NZQ7) | ≤ 10 nM |
| Cc1c(-c2nc3c(o2)CN(C(=O)CN[C@H]2C[C@@H](O)C2)C3)cccc1-c1cccc(NC(=O)c2nc3c(n2C)CCN(C)C3)c1Cl | PD-1/PD-L1 (Homo sapiens (Human), UniProt Q9NZQ7) | ≤ 10 nM |
| Cc1c(NC(=O)c2nc3c(n2C)CCN(C2CCOCC2)C3)cccc1-c1cccc(NC(=O)c2nc3c(n2C)CCN(C[C@H]2CC[C@H](C(=O)O)CC2)C3)c1Cl | PD-1/PD-L1 (Homo sapiens (Human), UniProt Q9NZQ7) | ≤ 10 nM |
| Cc1c(NC(=O)c2nc3c(n2C)CCNC3)cccc1-c1cccc(NC(=O)c2nc3c(n2C)CCN(CC[C@H]2CC[C@H](C(=O)O)CC2)C3)c1Cl | PD-1/PD-L1 (Homo sapiens (Human), UniProt Q9NZQ7) | ≤ 10 nM |
| C[C@@H](O)CN1CCc2c(nc(C(=O)Nc3cccc(-c4cccc(NC(=O)c5nc6c(n5C)CCN(CC57CCC(C(=O)O)(CC5)C7)C6)c4Cl)c3Cl)n2C)C1 | PD-1/PD-L1 (Homo sapiens (Human), UniProt Q9NZQ7) | ≤ 10 nM |
| Cc1c(NC(=O)c2nc3c(n2C)CCN(CC[C@H]2CC[C@H](C(=O)O)CC2)C3)cccc1-c1cccc(NC(=O)c2nc3c(n2C)CCN(C2CCOCC2)C3)c1Cl | PD-1/PD-L1 (Homo sapiens (Human), UniProt Q9NZQ7) | ≤ 10 nM |

I have 2 compounds here; please give me IC50 for each one.
1. C[C@@H](O)CN1CCc2c(nc(C(=O)Nc3cccc(-c4cccc(NC(=O)c5nc6c(n5C)CCN(C)C6)c4C#N)c3Cl)n2C)C1
2. Cc1c(NC(=O)c2nc3c(n2C)CCN(CC2CCOCC2)C3)cccc1-c1cccc(NC(=O)c2nc3c(n2C)CCN(C)C3)c1Cl

**Result**
1. ≤ 10 nM
2. ≤ 10 nM

**Query** Quick check: IC50 of Cn1c(C(=O)Nc2cccc(-c3cccc(-c4nc5c(o4)CN(C(=O)CN4CC[C@@H](O)C4)C5)c3Cl)c2Cl)nc2c1CCN(CCC1CCC(C(=O)O)CC1)C2 (some centres unmarked) ?
**Result** ≤ 10 nM

###

# Measured on: PD-1/PD-L1 (Homo sapiens (Human))
# Method summary: PD-1/PD-L1 binding assay (HTRF)
Exercise: state measured IC50 for each of the compounds provided.

| Compound | IC50 |
| --- | --- |
| Cn1c(C(=O)Nc2cccc(-c3cccc(NC(=O)c4nc5c(n4C)CCN(C4CCC(O)CC4)C5)c3Cl)c2Cl)nc2c1CCN(CC[C@H]1CC[C@H](C(=O)O)CC1)C2 (stereo partly drawn) | ≤ 10 nM |
| Cn1c(C(=O)Nc2cccc(-c3cccc(NC(=O)c4nc5c(n4C)CCN(C4CCOCC4)C5)c3Cl)c2Cl)nc2c1CCN(CC13CCC(C(=O)O)(CC1)C3)C2 | 10 to 100 nM |

**Query** Quick check: IC50 of Cc1c(NC(=O)c2nc3c(n2C)CCN(C[C@H](C)O)C3)cccc1-c1cccc(NC(=O)c2nc3c(n2C)CCN(C2CCC2)C3)c1Cl ?
**Result** ≤ 10 nM
